Quick note: these are IC50 numbers for system: SARS-CoV-2 Main Protease (SARS-CoV-2)

compound: CNC(=O)CN1C[C@]2(CC(=O)N(c3cncc4ccccc34)C2=O)c2cc(Cl)ccc2C1=O (stereo in doubt)
IC50: 84.6 µM
//
compound: O=C(CN(C(=O)Cn1ccnn1)c1ccc(-c2ccccn2)cc1)N1CCNCC1
IC50: > 99.5 µM
//
compound: O=C(Nc1cccc(C(F)(F)F)c1)Nc1ccccc1Sc1ncc([N+](=O)[O-])s1
IC50: 6.26 µM
//
compound: COCc1csc(-c2nnc(-c3sc(-c4ccccc4)nc3C)o2)c1
IC50: > 99.5 µM
//
compound: CC(C)(C)OC(=O)N(c1cc(Cl)cc(CC(=O)Nc2cncc3ccccc23)c1)C1CNC1
IC50: 2.03 µM
//
compound: C=CC(=O)N(c1ccc(C(C)(C)C)cc1)C(C(=O)NCc1cccnc1)c1cccnc1 (configuration not stated)
IC50: 49.9 µM
//
compound: C=CC(=O)N(c1ccc(C(C)(C)C)cc1)C(C(=O)NCc1ccccc1)c1cccnc1 (configuration not stated)
IC50: 33.3 µM
//
compound: O=C(Cc1cc(Cl)cc(NCC(c2ccccc2)c2ccccc2)c1)Nc1cncc2ccccc12
IC50: 5.82 µM
//
compound: Cc1cc(C)c(S(=O)(=O)N2CCCC2C(=O)Nc2ccc3[nH]c(=O)sc3c2)c(C)c1 (configuration not stated)
IC50: > 99.5 µM
//
compound: Cc1nc(Nc2cc(Cl)cc(CC(=O)Nc3cncc4ccccc34)c2)ccc1Br
IC50: 2.07 µM
//
compound: Cn1ncc2cc(N(C(=O)c3cnc[nH]3)C(C(=O)NCCc3cccc(F)c3)c3cccnc3)ccc21 (configuration not stated)
IC50: > 99 µM
//
compound: CC1(C)Nc2ccccc2C1NC(=O)Cc1cccc(Cl)c1 (configuration not stated)
IC50: > 99.5 µM
//
compound: O=C(NCCc1cccc(F)c1)C(c1cccnc1)N(Cc1c(O)ccc2c1CCCC2)C(=O)c1ccco1 (configuration not stated)
IC50: 12.1 µM
//
compound: COc1ccc2c(NC(=O)C3CCOc4ccc(Cl)cc43)[nH]nc2c1 (configuration not stated)
IC50: > 99.5 µM
//
compound: CN1C(=O)c2ccc(Nc3cc(Cl)cc(CC(=O)Nc4cncc5ccccc45)c3)cc2C1=O
IC50: 1.66 µM
//
compound: O=C(NCCc1cccc(F)c1)C(c1cccnc1)N(C(=O)c1cocn1)c1ccc(C(F)(F)F)nc1 (configuration not stated)
IC50: 36.4 µM
//
compound: O=C(NCCc1cccc(F)c1)C(c1cccnc1)N(C(=O)c1cnc[nH]1)c1ccc(Cl)cc1 (configuration not stated)
IC50: > 99.5 µM
//
compound: CN(C)CCOc1ccc2cncc(NC(=O)C3CN(S(=O)(=O)CC4(C#N)CC4)Cc4ccc(Cl)cc43)c2c1 (configuration not stated)
IC50: 0.117 µM
//
compound: CC(C)(C)c1ccc(N(C(=O)C2CCCO2)C(C(=O)NCCc2cccc(F)c2)c2cccnc2)cc1 (configuration not stated)
IC50: 5.56 µM
//
compound: C[C@@H]1C[C@H](C(=O)Nc2cncc3ccccc23)c2cc(Cl)ccc2O1 (stereo in doubt)
IC50: 0.679 µM
//
compound: CC[C@]1(c2ccc(Nc3cc(Cl)cc(CC(=O)Nc4cncc5ccccc45)c3)cc2)CCC(=O)NC1=O (stereo in doubt)
IC50: 1.91 µM
//
compound: O=C(Cc1cc(Cl)cc(Nc2cccc3ccc(O)cc23)c1)Nc1cncc2ccccc12
IC50: 3.2 µM
//
compound: CC(C)(C)c1ccc(N(C(=O)c2cnon2)C(C(=O)NCCc2cccc(F)c2)c2cccnc2)cc1 (configuration not stated)
IC50: 8.41 µM
//
compound: CNC(=O)CN1Cc2ccc(Cl)cc2C2(CCN(c3cncc4c3CCCC4)C2=O)C1 (configuration not stated)
IC50: 0.258 µM
//
compound: C=CC(=O)N(Cc1ccccc1Cl)C(C(=O)NC)c1cncc2ccccc12 (configuration not stated)
IC50: > 99.5 µM
//
compound: O=C(Cc1cccc(Cl)c1)Nc1cnccc1C(=O)O
IC50: > 99.5 µM
//
compound: O=C(Cc1cc(Cl)cc(Nc2ccc(Br)c(Cl)c2Cl)c1)Nc1cncc2ccccc12
IC50: 2.41 µM
//
compound: NS(=O)(=O)NCCNS(=O)(=O)c1ccccc1[N+](=O)[O-]
IC50: > 99.5 µM
//
compound: N#CCC(=O)N1Cc2ccc(Cl)cc2C(C(=O)Nc2cncc3ccccc23)C1 (configuration not stated)
IC50: 0.204 µM
//
compound: C=CC(=O)N(c1ccc(I)cc1)C(C(=O)Nc1ccc(Cl)cc1)c1cncnc1 (configuration not stated)
IC50: 26.3 µM
//
compound: O=C(Cc1cc(Cl)cc(Nc2ccccc2OCC(F)(F)F)c1)Nc1cncc2ccccc12
IC50: 1.96 µM
//
compound: O=C(Cc1cc(Cl)cc(Nc2ccc(-c3ccccc3)cc2)c1)Nc1cncc2ccccc12
IC50: 2.06 µM
//
compound: O=C(Cc1cc(Cl)cc(Nc2ccc(F)c(Br)c2)c1)Nc1cncc2ccccc12
IC50: 1.97 µM
//
compound: CCC(c1ccncc1)N(C)C(=O)Cc1c[nH]c2ncccc12 (configuration not stated)
IC50: > 99.5 µM
//
compound: O=C(NCCc1cccc(F)c1)C(c1cccnc1)N(Cc1ccccc1C1CCC1)C(=O)c1ccco1 (configuration not stated)
IC50: 1.93 µM
//
compound: O=C(Nc1nncn1C1CC1)C1CCS(=O)(=O)c2ccccc21 (configuration not stated)
IC50: 68.9 µM
//
compound: O=C(Nc1cncc2ccccc12)C1CCNc2cc(Cl)c(Cl)cc21 (configuration not stated)
IC50: 0.154 µM
